Tested on: hMPV A2 TN/94-49
Experiment: HMPV antiviral assay Method 2 (LLC-MK2 cells with CP-100-356, ATP-Lite)
Format: cell-based
Details: hMPV A2 TN/94-49, LLC-MK2 cells, 4 μM CP-100-356, Method 2
pEC50: −log10 of the molar value.
MEASURED_PROPERTY: pEC50

Look over these answered cases.
SMILES_NOTATION	pEC50
COc1cc(C(=O)NC[C@@](O)(c2ccccc2)c2cc3c(c(-c4cc(C(F)F)c(F)cc4F)n2)OC[C@]3(C)C(N)=O)cc2oc(C3CC3)nc12	> 6.70
COc1cc(C(=O)NC[C@@](O)(c2cccc(S(C)(=O)=O)c2)c2cc3c(c(-c4cc(Cl)c(F)cc4F)n2)OC[C@]3(C)C(N)=O)cc2cn(C3CC3)nc12	> 6.70
COc1cc(C(=O)NC[C@](O)(c2cc3c(c(-c4cc(F)c(F)cc4C)n2)OC[C@]3(C)C(N)=O)C2CC2)cc2cn(C3CC3)nc12	> 6.70
COc1cc(C(=O)NC[C@@](O)(c2ccccc2)c2cc3c(c(-c4cccc(Cl)c4F)n2)OC[C@]3(C)C(N)=O)cc2cn(C3(F)CC3)nc12	> 6.70
COc1cc(C(=O)NC[C@@](O)(c2cccc(F)n2)c2cc3c(c(-c4cc(Cl)c(F)cc4F)n2)OC[C@]3(C)C(N)=O)cc2cc(C3CC3)nn12	> 6.70

Field: pEC50 (hMPV A2 TN/94-49). Entry: `COc1cc(C(=O)NC[C@@](O)(c2cccc(F)c2)c2cc3c(c(-c4ccc5c(c4Cl)OC(F)(F)O5)n2)OC[C@]3(C)C(N)=O)cc2oc(C3CC3)nc12`
> 6.70
